Reported KA IC50 values for the following molecules.
target: native KA receptors; assay: Radioligand binding at native KA receptors; details: [3H]KA, rat synaptosomes

molecule	KA IC50
Cl.O=C(O)[C@H]1NCC[C@@H]1c1cccc(Cl)c1 [1d]	>100 µM
Cc1ccc([C@H]2CCN[C@@H]2C(=O)O)cc1C(=O)O.Cl [1m]	>100 µM
Cl.O=C(O)c1cc([C@H]2CCN[C@@H]2C(=O)O)ccc1Br [1n]	>100 µM
O=C(O)[C@H]1NCC[C@@H]1c1ccc(O)c(O)c1 [1j]	>100 µM
Cl.O=C(O)[C@H]1NCC[C@@H]1c1cccc(B(O)O)c1 [1i]	>100 µM
